Hi there, I'd appreciate the recorded inhibition at 280.212 g/ha for every entry that follows.
system: Soybean; test: post-emergence herbicide test; type: in vivo; settings: Glycine max, post-emergence, 0.25 lb/A; read-out: % plant inhibition
Numbers only, in %.

Take a look at these entries with their results.
molecule	inhibition at 280.212 g/ha [%]
Cc1c(-c2cc(C(=O)OCC(=O)OC(C)C)c(Cl)cc2F)nn(C)c1C(F)(F)F [Compound 23]	30
CC(C)OC(=O)c1cc(-c2nn(C)c(C(F)(F)F)c2CO)c(F)cc1Cl [Compound 14]	25
CCCOC(=O)c1cc(-c2nn(C)c(C(F)(F)F)c2C)c(F)cc1Cl [Compound 19]	50
Cc1cc(-c2nn(C)c(C(F)(F)F)c2C)c(O)cc1Cl [Compound 16]	0
Cc1c(-c2cc(C(=O)NC(C)C)c(Cl)cc2F)nn(C)c1C(F)(F)F [Compound 22]	50

Quick batch: inhibition at 280.212 g/ha for everything below.
1. Cc1c(-c2cc(CS(C)(=O)=O)c(Cl)cc2F)nn(C)c1C(F)(F)F [Compound 28]
2. Cn1nc(-c2cc(C(=O)O)c(Cl)cc2F)c(C=O)c1C(F)(F)F [Compound 3]
3. Cc1c(-c2cc(OCC(=O)OC(C)C)c(Cl)cc2F)nn(C)c1C(F)(F)F [Compound 38]
4. Cc1c(-c2cc(CSCC(C)C)c(Cl)cc2F)nn(C)c1C(F)(F)F [Compound 32]
5. COCc1cc(-c2nn(C)c(C(F)(F)F)c2C)c(F)cc1Cl [Compound 11]

## Output
1: 20; 2: 15; 3: 15; 4: 20; 5: 20

Record inhibition at 280.212 g/ha per entry; entries follow.
1. CCOC(=O)c1cc(-c2nn(C)c(C(F)(F)F)c2C)c(F)cc1Cl [Compound 26]
2. CC(=O)CCCOC(=O)c1cc(-c2nn(C)c(C(F)(F)F)c2C)c(F)cc1Cl [Compound 53]
3. CCCCCOC(=O)c1cc(-c2nn(C)c(C(F)(F)F)c2C)c(F)cc1Cl [Compound 48]
4. CC(C)OC(=O)c1cc(-c2nn(C)c(C(F)(F)F)c2C(F)F)c(F)cc1Cl [Compound 13]
5. Cc1cc(-c2nn(C)c(C(F)(F)F)c2C)c(F)cc1Cl [Compound 33]
6. CC(C)OC(=O)c1cc(-c2nn(C)c(C(F)(F)F)c2CF)c(F)cc1Cl [Compound 15]
7. COC(=O)c1cc(-c2nn(C)c(C(F)(F)F)c2C)c(F)cc1Cl [Compound 18]
8. Cc1c(-c2cc(C(=O)OCSC#N)c(Cl)cc2F)nn(C)c1C(F)(F)F [Compound 50]

## Output
1: 75; 2: 75; 3: 70; 4: 90; 5: 15; 6: 90; 7: 40; 8: 7

## Input Which measured inhibition at 280.212 g/ha value corresponds to CCOC(=O)COC(=O)c1cc(-c2nn(C)c(C(F)(F)F)c2C)c(F)cc1Cl [Compound 17] ?
## Output 30

###

system: Rape; experiment: pre-emergence herbicide test; type: in vivo; settings: pre-emergence, 0.25 lb/A; read-out: % plant inhibition
Exercise: for every item that follows, state its recorded inhibition at 280.212 g/ha.
Numbers only, in %.

Look at each compound and report its inhibition at 280.212 g/ha.
1. Cc1c(-c2cc(C(=O)OCC(=O)c3ccccc3)c(Cl)cc2F)nn(C)c1C(F)(F)F
2. Cn1nc(-c2cc(C(=O)O)c(Cl)cc2F)c(C=O)c1C(F)(F)F
3. CCOC(=O)CCCOC(=O)c1cc(-c2nn(C)c(C(F)(F)F)c2C)c(F)cc1Cl

## Output
1: 5; 2: 5; 3: 95

Go through the list and state inhibition at 280.212 g/ha for each entry.
1. Cc1c(-c2cc(C(N)=O)c(Cl)cc2F)nn(C)c1C(F)(F)F
2. CCOC(=O)c1cc(-c2nn(C)c(C(F)(F)F)c2C)c(F)cc1Cl
3. Cc1c(-c2cc(C(=O)OC3CCOC3)c(Cl)cc2F)nn(C)c1C(F)(F)F (stereo not drawn)

## Output
1: 90; 2: 40; 3: 35

The reported numbers originate from patent US5672715A.
